These entries and their values trace back to patent US6281194A.

# Subject Of Test: SF9 affinity purified rat farnesyl protein transferase (Rattus norvegicus, UniProt Q02293+Q04631)
# Construct: made in house; host or cells: Sf9 insect cells (baculovirus system, inferred from b7)
# Procedure Summary: PFT inhibitory activity
# Type: biochemical
# Experimental Context: HEPES buffer pH 7.4 with 5 mM potassium phosphate; read-out: PFT Inhibitory Activity IC50 (μM) HEPES and 5 mM K3 PO4
Property Name: IC50 (µM)
The figure you give is taken to be in µM; do not add the unit.

The cases that follow already have their IC50 on record.
O=C(CN(Cc1ccc(OCc2ccccn2)cc1)C(=O)[C@H](Cc1c[nH]cn1)NC(=O)OCc1ccccc1)NCC1(c2ccccc2)CCC1	0.0017
Cc1ccc(CN(CC(=O)NCC2(c3ccccc3)CCC2)C(=O)[C@H](Cc2c[nH]cn2)NC(=O)OCc2ccccc2)cc1	0.0054
COc1ccc(CN(CC(=O)NCC2(c3ccccc3)CCC2)C(=O)[C@H](Cc2c[nH]cn2)NC(=O)OCc2ccccc2)cc1	0.0029
C/C=C/CN(CC(=O)NCC1(c2ccccc2)CCC1)C(=O)[C@H](Cc1cnc[nH]1)NC(=O)OCc1ccccc1 (stereo in doubt)	0.36
O=C(CN(Cc1ccc(OCc2ccccc2)cc1)C(=O)[C@H](Cc1c[nH]cn1)NC(=O)OCc1ccccc1)NCC1(c2ccccc2)CC1	0.006

Per the record, CCCN(CC(=O)NCC1(c2ccccc2)CCC1)C(=O)[C@H](Cc1cnc[nH]1)NC(=O)OCc1ccccc1 has IC50 of 0.33

Per the record, Cc1ccc(CN(CC(=O)NCC2(c3ccccc3)CCC2)C(=O)[C@H](Cc2c[nH]cn2)NC(=O)N(C)Cc2ccccc2)cc1 has IC50 of 0.003

Per the record, O=C(CN(Cc1ccc(OCc2ccccc2)cc1)C(=O)[C@H](Cc1c[nH]cn1)NC(=O)OCc1ccccc1)NCC1(c2c(Cl)cccc2Cl)CCC1 has IC50 of 0.18
